The values you see were collected from patent US10259810B2.

Molecular target: ΔF508-CFTR (Homo sapiens, UniProt P13569, DEL508-508)
Construct: host or cells: CFBE41o-, doxycycline-inducible
Sequence (P13569 with tags, fused parts or gaps DEL508-508): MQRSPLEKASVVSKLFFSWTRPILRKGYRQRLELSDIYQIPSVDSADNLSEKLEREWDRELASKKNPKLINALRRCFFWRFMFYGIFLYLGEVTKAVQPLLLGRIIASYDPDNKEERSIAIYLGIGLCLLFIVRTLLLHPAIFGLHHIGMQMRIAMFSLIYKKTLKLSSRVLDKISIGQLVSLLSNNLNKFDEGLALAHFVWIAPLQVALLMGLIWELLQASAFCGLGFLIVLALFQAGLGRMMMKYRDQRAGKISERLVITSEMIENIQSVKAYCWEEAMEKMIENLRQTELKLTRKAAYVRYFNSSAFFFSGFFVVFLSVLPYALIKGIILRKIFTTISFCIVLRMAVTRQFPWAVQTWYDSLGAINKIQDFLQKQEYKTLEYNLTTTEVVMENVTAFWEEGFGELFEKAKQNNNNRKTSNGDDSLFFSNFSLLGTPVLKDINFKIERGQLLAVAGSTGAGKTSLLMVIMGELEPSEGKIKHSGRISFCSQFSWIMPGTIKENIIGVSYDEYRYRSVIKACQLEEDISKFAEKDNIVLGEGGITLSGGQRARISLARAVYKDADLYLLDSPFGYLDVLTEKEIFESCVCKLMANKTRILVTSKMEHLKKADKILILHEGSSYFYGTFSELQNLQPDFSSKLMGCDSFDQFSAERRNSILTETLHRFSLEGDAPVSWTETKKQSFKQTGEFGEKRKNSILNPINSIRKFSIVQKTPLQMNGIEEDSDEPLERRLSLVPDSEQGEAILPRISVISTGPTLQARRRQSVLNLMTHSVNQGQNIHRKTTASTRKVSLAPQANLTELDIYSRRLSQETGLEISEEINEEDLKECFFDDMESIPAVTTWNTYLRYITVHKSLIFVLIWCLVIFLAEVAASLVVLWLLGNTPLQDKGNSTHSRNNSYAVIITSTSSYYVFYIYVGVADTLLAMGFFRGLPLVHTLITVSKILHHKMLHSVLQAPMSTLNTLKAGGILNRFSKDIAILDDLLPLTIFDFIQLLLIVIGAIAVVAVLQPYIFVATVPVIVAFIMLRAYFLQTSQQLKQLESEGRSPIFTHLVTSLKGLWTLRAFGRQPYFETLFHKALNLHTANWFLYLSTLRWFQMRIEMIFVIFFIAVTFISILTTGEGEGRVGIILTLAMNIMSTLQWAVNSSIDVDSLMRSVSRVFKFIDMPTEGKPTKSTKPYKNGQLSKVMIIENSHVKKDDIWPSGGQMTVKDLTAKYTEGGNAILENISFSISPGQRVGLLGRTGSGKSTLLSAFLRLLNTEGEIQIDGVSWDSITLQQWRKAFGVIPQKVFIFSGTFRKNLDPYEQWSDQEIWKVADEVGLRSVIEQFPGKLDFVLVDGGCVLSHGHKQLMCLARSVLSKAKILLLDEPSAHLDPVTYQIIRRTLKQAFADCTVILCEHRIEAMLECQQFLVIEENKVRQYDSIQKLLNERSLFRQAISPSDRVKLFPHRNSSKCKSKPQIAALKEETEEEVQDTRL
Experiment: CFTR cell surface levels using HRP-tagged ΔF508-CFTR expressing CFBE cells, in the presence of a co-corrector
Format: cell-based
Details: HRP-tagged ΔF508-CFTR CFBE cells, in the presence of 3 μM co-corrector; read-out: EC50
Friendly reminder: EC50 below 80 nM is YES, at or above is NO.

> print(dat)
                                    compound  class
 1  COc1ccc(-n2nc(C(C)C)c3c(-c4ccc(N(C)C)cc4)cc(C(=O)NS(C)(=O)=O)nc32)cn1     NO
 2  CC(C)c1nn(C2CCCCC2)c2nc(C(=O)NS(C)(=O)=O)cc(-c3cnc(N4CCOCC4)nc3)c12     NO
 3  Cc1cccc(-n2nc(C(C)C)c3c(N4CCC(CF)CC4)cc(C(=O)NS(C)(=O)=O)nc32)c1     NO
 4  CC1(S(=O)(=O)NC(=O)c2cc(N3CCC(CN4CCCC4)CC3)c3c(C4CCC4)nn(-c4ccccc4)c3n2)CC1     NO
 5  CC(C)Oc1nccc(-n2nc(C3CCC3)c3c(N4CCC(N5CCOCC5)CC4)cc(C(=O)NS(=O)(=O)N(C)C)nc32)n1    YES
 6  COCC1CN(C2CCN(c3cc(C(=O)NS(=O)(=O)N(C)C)nc4c3c(C3CCC3)nn4-c3ccc(F)cc3)CC2)CCO1 (stereo not shown)    YES
 7  CC(C)c1nn(-c2ccc(F)cc2)c2nc(C(=O)NS(C)(=O)=O)cc(OCCOC3COC3)c12     NO
 8  CNS(=O)(=O)NC(=O)c1cc(N2CCC(N3CCC(OC)CC3)CC2)c2c(C3CCC3)nn(-c3ccc(F)cc3)c2n1     NO
 9  CC(C)c1nn(-c2ccc(F)cc2)c2nc(C(=O)NS(C)(=O)=O)cc(N3CCN(C4CCC4)CC3)c12     NO
10  COCCS(=O)(=O)NC(=O)c1cc(-c2ccc(N3CCOCC3)cc2)c2c(OC(C)C)nn(-c3ccccc3)c2n1     NO
11  COC1CCN(Cc2ccc(-c3cc(C(=O)NS(C)(=O)=O)nc4c3c(OC(C)C)nn4C3CCCCC3)cc2)CC1    YES
12  CCS(=O)(=O)NC(=O)c1cc(N2CCC(OC)CC2)c2c(C(C)C)nn(-c3cccc(C)c3)c2n1     NO
13  N#CC1CCN(S(=O)(=O)NC(=O)c2cc(N3CCC(N4CCOCC4)CC3)c3c(C4CCC4)nn(-c4ccc(F)cc4)c3n2)CC1    YES
14  COC(C)(C1CCN(c2cc(C(=O)NS(C)(=O)=O)nc3c2c(C2CCC2)nn3-c2ccccc2)CC1)C(F)(F)F (stereo not shown)     NO
15  CS(=O)(=O)NC(=O)c1cc(N2CCC(CCN3CCOCC3)CC2)c2c(C3CCC3)nn(-c3ccc(F)cc3)c2n1    YES
16  COC(C)(C)C1CCN(c2cc(C(=O)NS(C)(=O)=O)nc3c2c(C2CCC2)nn3-c2ccccc2)CC1    YES
17  Cc1cccc(-n2nc(C3CCC3)c3c(N4CCC(N5CCOCC5)CC4)cc(C(=O)NS(=O)(=O)N(C)C)nc32)c1     NO
18  Cc1nn(-c2cccc(C(F)(F)F)c2)c2nc(C(=O)NS(C)(=O)=O)cc(-c3ccc(N(C)C)cc3)c12     NO
19  Cc1cccc(-n2nc(C(C)C)c3c(N4CCC5(C4)CC5(F)F)cc(C(=O)NS(C)(=O)=O)nc32)c1 (stereo not shown)     NO
20  CS(=O)(=O)NC(=O)c1cc(CN2CCOCC2)c2c(C3CCC3)nn(-c3ccc(F)cc3)c2n1     NO
